tested on: HCC-2998 colon; experiment: NCI tumour cell line growth inhibition, 48 h
Readout Label: TGI

Please review the entries below; each comes with its answer.
{"Compound": "COc1ncc(/C=C2\\OC(=O)c3ccccc32)c(OC)n1", "Target System": "HCC-2998 colon", "Readout Label": "TGI", "Result": "> 100 µM"}
{"Compound": "S=c1sc2c(n1-c1ccccc1)NC=NC2S (configuration not stated)", "Target System": "HCC-2998 colon", "Readout Label": "TGI", "Result": "> 100 µM"}
{"Compound": "CC(=O)OCCOCNC(=S)N/N=C(\\C)c1cnccn1", "Target System": "HCC-2998 colon", "Readout Label": "TGI", "Result": "> 100 µM"}

Query: Reported TGI for HCC-2998 colon, given `C=C1CCN2CC[C@@H](OC(=O)/C(C)=C\C)[C@@H]12` ?
Reply: > 100 µM

Query: Param readout = TGI; param system = HCC-2998 colon; param query = `CC(C)(C)c1cc2c(O)c3cccc4c(=O)c5cccc6c5-c(c34)c2c(c1)c6=O` ; response: value
Reply: 0.0657 µM

Query: Give recorded TGI with HCC-2998 colon for the following compound: CC(=O)N1C(C(=O)NC2CCCCC2)CSC1c1ccccc1 (configuration not stated)
Reply: > 100 µM

Query: Report TGI for `O=C(c1ccccn1)C1(N2CCCCC2)CCCCC1` tested on HCC-2998 colon.
Reply: > 100 µM

Query: Field: TGI (HCC-2998 colon). Entry: `N#C/C(=C1/Sc2c(nc[nH]c2=O)N1c1ccccc1)c1nc2ccccc2[nH]1`
Reply: > 100 µM

Query: Any idea what TGI came out for Cc1ccc(NC(=O)CC2Sc3ccccc3NC2=O)cc1C (configuration not stated) on HCC-2998 colon?
Reply: > 100 µM
